Numbers sourced from paper PMC6269915.

# Tested on: P-gp (MDR1)
# methodDescription: Bidirectional transport across MDCK-MDR1 monolayer cells
# Format: in vitro ADME, canine
# conditionSummary: dog, MDCK-MDR1, pH 7.4, MDCK-MDR1, Papp(B-A)/Papp(A-B); read-out: Efflux ratio
# Description: Blood-brain barrier (BBB) permeation is critical for any AD therapeutic drug. Madin-Darby canine kidney cell line (MDCK) was obtained from Peking Union Medical College (Beijing, China). The MDR1-transfected MDCK-MDR1 cells were established in Prof. […]
quantityName: efflux ratio at 1 h, 55.6 μM
Numbers only.

Q: Given the entry Br.NC1=NN=C(c2cc(NC(=O)c3cccc4ccccc34)ccc2OCc2ccccc2)CS1 [5e] , report its measured efflux ratio at 1 h, 55.6 μM.
Result: 0.7
